Values compiled from patent US11352350B2.

- System: OCI-LY10
- assay.info: CTG Cell Viability Assay - OCI-LY10
- Assay type: cell-based, human
- assay.context: Homo sapiens, OCI-Ly10, 96 h, OCI-LY10, 4 days; read-out: CTG Cell Viability Assay - OCI-LY10: Average external-IC50
pIC50: −log10 of the molar value.
Reported pIC50 by item:

[
  {
    "compound": "Cn1c(=O)n(C2CCC(=O)NC2=O)c2cccc(CCC(=O)N3CC4(CCN(C[C@H]5CC[C@H](n6cc(NC(=O)c7cnn8ccc(N9C[C@H]%10C[C@@H]9CO%10)nc78)c(C(F)F)n6)CC5)CC4)C3)c21 (stereo partly shown) [I-410]",
    "assayed.system": "OCI-LY10",
    "pIC50": "< 6.00"
  },
  {
    "compound": "CN(C[C@H]1CN(CCCc2ccc3c(c2)n(C)c(=O)n3C2CCC(=O)NC2=O)CCO1)C(=O)[C@H]1CC[C@H](n2cc(NC(=O)c3coc(-c4ccnc(NCC5CC5)c4)n3)c(C(F)F)n2)CC1 (stereo partly shown) [I-18]",
    "assayed.system": "OCI-LY10",
    "pIC50": "7.00 to 7.30"
  },
  {
    "compound": "CN(C[C@H]1CN(CC#Cc2ccc3c(c2)n(C)c(=O)n3C2CCC(=O)NC2=O)CCO1)C[C@H]1CC[C@H](n2cc(NC(=O)c3coc(-c4ccnc(NCC5CC5)c4)n3)c(C(F)F)n2)CC1 (stereo partly shown) [I-61]",
    "assayed.system": "OCI-LY10",
    "pIC50": "6.30 to 7.00"
  },
  {
    "compound": "CN(CCCc1cccc2c1n(C)c(=O)n2C1CCC(=O)NC1=O)C[C@H]1CC[C@H](n2cc(NC(=O)c3coc(-c4ccnc(NCC5CC5)c4)n3)c(C(F)F)n2)CC1 (stereo partly shown) [I-130]",
    "assayed.system": "OCI-LY10",
    "pIC50": "< 6.00"
  },
  {
    "compound": "CN(CCCOCCCc1cccc2c1n(C)c(=O)n2C1CCC(=O)NC1=O)C[C@H]1CC[C@H](n2cc(NC(=O)c3cccc(C(F)(F)F)n3)c(C(F)F)n2)CC1 (stereo partly shown) [I-44]",
    "assayed.system": "OCI-LY10",
    "pIC50": "< 6.00"
  },
  {
    "compound": "Cn1c(=O)n(C2CCC(=O)NC2=O)c2cccc(CCCOCCN3CCN(C[C@H]4CC[C@H](n5cc(NC(=O)c6coc(-c7ccnc(NCC8CC8)c7)n6)c(C(F)F)n5)CC4)CC3)c21 (stereo partly shown) [I-58]",
    "assayed.system": "OCI-LY10",
    "pIC50": "7.00 to 7.30"
  },
  {
    "compound": "Cn1c(=O)n(C2CCC(=O)NC2=O)c2cccc(CN3CCC(O[C@H]4C[C@H](N(C)C[C@H]5CC[C@H](n6cc(NC(=O)c7coc(-c8ccnc(NCC9CC9)c8)n7)c(C(F)F)n6)CC5)C4)CC3)c21 (stereo partly shown) [I-249]",
    "assayed.system": "OCI-LY10",
    "pIC50": "> 7.30"
  },
  {
    "compound": "Cn1c(=O)n(C2CCC(=O)NC2=O)c2cccc(-c3ccc4c(cnn4CCOC[C@H]4CC[C@H](n5cc(NC(=O)c6cnn7ccc(N8CCOCC8)nc67)c(C(F)F)n5)CC4)c3)c21 (stereo partly shown) [I-405]",
    "assayed.system": "OCI-LY10",
    "pIC50": "< 6.00"
  },
  {
    "compound": "Cn1c(=O)n(C2CCC(=O)NC2=O)c2cccc(C3CCN(C[C@H]4CC[C@H](n5cc(NC(=O)c6cnn7ccc(N8CCOCC8)nc67)c(C(F)F)n5)CC4)CC3)c21 (stereo partly shown) [I-199]",
    "assayed.system": "OCI-LY10",
    "pIC50": "< 6.00"
  },
  {
    "compound": "O=C1CCC(N2C(=O)c3cccc(NCC4CC5(C4)CN(C[C@H]4CC[C@H](n6cc(NC(=O)c7cnn8ccc(N9C[C@H]%10C[C@@H]9CO%10)nc78)c(C(F)F)n6)CC4)C5)c3C2=O)C(=O)N1 (stereo partly shown) [I-461]",
    "assayed.system": "OCI-LY10",
    "pIC50": "> 7.30"
  }
]
